molecular target: Sentrin-specific protease 6 (Homo sapiens, UniProt Q9GZR1); format: functional;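 also: Luminescence-based dose-response confirmatory assay of SENP6 inhibition, following up an ultra-high-throughput screen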
Sequence (Q9GZR1 whole entry): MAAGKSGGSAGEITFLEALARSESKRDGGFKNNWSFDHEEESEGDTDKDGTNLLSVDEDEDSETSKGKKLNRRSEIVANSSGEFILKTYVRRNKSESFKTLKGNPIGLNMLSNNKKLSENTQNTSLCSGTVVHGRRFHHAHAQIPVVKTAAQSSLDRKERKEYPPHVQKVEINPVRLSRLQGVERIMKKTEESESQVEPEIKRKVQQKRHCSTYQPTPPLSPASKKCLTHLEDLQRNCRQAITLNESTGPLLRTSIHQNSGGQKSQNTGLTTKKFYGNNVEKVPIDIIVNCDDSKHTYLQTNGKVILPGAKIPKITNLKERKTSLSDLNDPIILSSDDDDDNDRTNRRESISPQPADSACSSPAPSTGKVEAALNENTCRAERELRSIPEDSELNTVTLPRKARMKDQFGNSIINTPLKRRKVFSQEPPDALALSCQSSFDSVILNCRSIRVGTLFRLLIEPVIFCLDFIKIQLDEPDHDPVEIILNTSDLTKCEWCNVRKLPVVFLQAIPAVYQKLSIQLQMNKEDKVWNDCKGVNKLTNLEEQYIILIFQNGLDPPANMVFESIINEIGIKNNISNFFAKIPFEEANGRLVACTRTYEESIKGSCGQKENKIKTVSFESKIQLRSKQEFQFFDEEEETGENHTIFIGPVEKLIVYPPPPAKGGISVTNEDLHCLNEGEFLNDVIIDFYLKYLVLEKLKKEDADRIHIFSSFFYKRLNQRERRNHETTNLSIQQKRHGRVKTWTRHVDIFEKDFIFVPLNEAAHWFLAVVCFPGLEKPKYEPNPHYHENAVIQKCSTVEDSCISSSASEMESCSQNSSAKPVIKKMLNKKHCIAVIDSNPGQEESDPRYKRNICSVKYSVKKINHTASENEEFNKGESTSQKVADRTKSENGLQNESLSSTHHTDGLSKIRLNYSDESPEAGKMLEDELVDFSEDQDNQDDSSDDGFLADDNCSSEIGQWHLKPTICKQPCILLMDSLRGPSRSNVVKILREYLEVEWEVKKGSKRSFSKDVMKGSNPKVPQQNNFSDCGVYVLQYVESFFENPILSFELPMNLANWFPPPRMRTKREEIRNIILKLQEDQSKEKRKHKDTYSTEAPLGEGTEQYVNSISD
The source made the active and inactive calls.
Would you mind answering with one of these outcomes? YES for active, NO for inactive

Compound: CCC(COC)Oc1cc(NCc2ccccc2)c2ncn(C(C)C)c2c1 (stereo unspecified)
Class name: YES

Compound: O=C1c2ccccc2C(=O)C12OC2c1cccc2ccccc12 (stereo unspecified)
Class name: YES

Compound: COc1ccc(-c2cc3ccc(OC)cc3cn2)cc1
Class name: NO

Compound: O=c1[nH]c(N2CCOCC2)cc2ccccc12
Class name: YES

Compound: CCCOc1ccc(C(=O)Nc2ccc(Cl)cn2)cc1
Class name: YES

Moving on to the next compound.
Give the logged outcome of this assay for the following compound: O=C1/C(=C\c2ccc(O)c(O)c2)SC(=S)N1Cc1ccccc1 YES

----------
Reported values: AC50 for UniProt:P05177, one per item.
Sequence (P05177 whole entry): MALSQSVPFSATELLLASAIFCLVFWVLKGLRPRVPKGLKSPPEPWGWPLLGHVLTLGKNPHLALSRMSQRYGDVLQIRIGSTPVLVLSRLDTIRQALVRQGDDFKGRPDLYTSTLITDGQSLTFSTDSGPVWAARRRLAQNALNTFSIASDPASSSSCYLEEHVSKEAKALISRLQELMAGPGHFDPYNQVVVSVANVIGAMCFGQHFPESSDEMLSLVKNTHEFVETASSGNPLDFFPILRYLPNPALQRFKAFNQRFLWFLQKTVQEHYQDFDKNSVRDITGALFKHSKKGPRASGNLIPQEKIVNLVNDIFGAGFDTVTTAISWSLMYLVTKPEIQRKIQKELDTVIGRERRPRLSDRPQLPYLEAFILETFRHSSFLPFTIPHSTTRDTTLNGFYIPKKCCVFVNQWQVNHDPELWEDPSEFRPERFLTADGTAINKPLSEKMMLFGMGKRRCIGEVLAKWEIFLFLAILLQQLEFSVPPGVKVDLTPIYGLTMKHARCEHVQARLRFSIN

// below: answered compounds
Compound: C/C(=N\NC(=O)c1cccc(C)c1)c1cccc(NC(=O)c2ccco2)c1
Quantity measured: AC50
Value reported: 14.1 µM (inconclusive)
//
Compound: CC(Oc1ccc(-c2ccccc2)cc1)C(=O)O (stereo not given)
Quantity measured: AC50
Value reported: 25.1 µM (inconclusive)
//
Compound: COC(=O)c1c(C)ccc2c(O)c3c(cc12)C(=O)c1c2c(cc(O)c1C3=O)[C@@]1(C)O[C@@](C)(O2)[C@@H](O)[C@H](N(C)C)[C@H]1O
Quantity measured: AC50
Value reported: 5.01 µM (inconclusive)
//
Compound: CCOc1ccccc1Nc1nc(-c2sc(NC(=O)c3ccccc3)nc2C)cs1
Quantity measured: AC50
Value reported: 6.31 µM (inconclusive)

Lab entry: UniProt:P05177 assay, compound O=C(c1cnccn1)N1CCC[C@@]2(CCN(c3ccccc3)C2)C1 , AC50 = 15.8 µM (inconclusive)

----------
target: UniProt P11712
Sequence (P11712 whole entry): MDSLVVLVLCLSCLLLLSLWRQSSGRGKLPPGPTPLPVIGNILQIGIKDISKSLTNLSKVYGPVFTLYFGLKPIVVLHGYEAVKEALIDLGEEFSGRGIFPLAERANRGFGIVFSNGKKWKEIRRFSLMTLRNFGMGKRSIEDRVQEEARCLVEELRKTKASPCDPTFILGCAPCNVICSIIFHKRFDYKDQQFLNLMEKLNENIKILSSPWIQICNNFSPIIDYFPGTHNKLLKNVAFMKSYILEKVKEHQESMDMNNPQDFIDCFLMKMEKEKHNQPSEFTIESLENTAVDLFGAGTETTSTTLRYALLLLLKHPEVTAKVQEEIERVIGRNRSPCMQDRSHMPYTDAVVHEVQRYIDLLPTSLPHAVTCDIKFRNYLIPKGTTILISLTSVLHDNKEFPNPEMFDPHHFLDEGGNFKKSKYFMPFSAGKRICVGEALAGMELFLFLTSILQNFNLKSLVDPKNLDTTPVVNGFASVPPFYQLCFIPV
For each record, write down the corresponding AC50.

Completed entries (count: 5):
Molecule: N#Cc1cccc(NC(=O)N2CCCC3(CCN(C(=O)c4cccc(F)c4)CC3)C2)c1
AC50: 31.6 µM (inconclusive)
//
Molecule: N#Cc1cccc(-c2nc(Nc3ccncc3)c3ccccc3n2)c1
AC50: 1.58 µM (inconclusive)
//
Molecule: COc1cc(O)oc1/C=N/c1ccc(C(F)(F)F)cc1
AC50: 17.8 µM (inconclusive)
//
Molecule: C/C(CCC(=O)OC[C@@H]1O[C@H](C#Cc2ccccc2)C=C[C@@H]1Oc1ccc(C)cc1)=N/O[C@@H](C)CN1CCCc2nc(C)c(C)cc21
AC50: 2.51 µM (inconclusive)
//
Molecule: O=C(CCn1nc(-c2ccc(Cl)cc2)c2ccccc2c1=O)NCCN1CCOCC1
AC50: 17.8 µM (inconclusive)

List the reported AC50 of each molecule below.
1. COc1ccc(-n2c(=O)c(-c3ccc(Cl)cc3)nc3cnc(N4CCOCC4)nc32)cc1
2. C/C(=N\NC(=O)c1cccc(C)c1)c1cccc(NC(=O)c2ccco2)c1
3. COc1ccc2[nH]cc(CCNc3ccnc(-c4cccnc4)n3)c2c1

["31.6 µM (inconclusive)", "39.8 µM (inconclusive)", "0.794 µM (inconclusive)"]

Please give AC50, item by item, for the list that follows.
1. O=C(c1ccc2c(c1)N(Cc1ccccc1)C(=O)CS2)N1CCOCC1
2. O=C(C[N+]1(c2ccccc2)CCOCC1)c1ccccc1
3. COC(=O)c1c(C)ccc2c(O)c3c(cc12)C(=O)c1c2c(cc(O)c1C3=O)[C@@]1(C)O[C@@](C)(O2)[C@@H](O)[C@H](N(C)C)[C@H]1O
4. Cc1cc(NC(=O)CSc2ccc3nnc(-c4ccc(F)cc4)n3n2)no1
5. Clc1ccc(CSc2nnc(-c3sccc3-n3cccc3)o2)cc1
6. Cc1ccc(S(=O)(=O)c2nc(S(=O)(=O)c3ccc(C)cc3)c(NCc3ccco3)s2)cc1
7. CC(=O)Nc1ccc(Cc2ccc3nc(O)cc(C)c3c2)cc1
8. CCOC(=O)C(C)Sc1nnc(CNC(=O)c2ccc(OC)cc2)n1C1CCCCC1 (stereo unspecified)

1: 14.1 µM (inconclusive); 2: 6.31 µM (inconclusive); 3: 2.51 µM (inconclusive); 4: 25.1 µM (inconclusive); 5: 14.1 µM (inconclusive); 6: 5.62 µM (inconclusive); 7: 6.31 µM (inconclusive); 8: 15.8 µM (inconclusive)
